B1: library; numbered along this chain (parent)
chain: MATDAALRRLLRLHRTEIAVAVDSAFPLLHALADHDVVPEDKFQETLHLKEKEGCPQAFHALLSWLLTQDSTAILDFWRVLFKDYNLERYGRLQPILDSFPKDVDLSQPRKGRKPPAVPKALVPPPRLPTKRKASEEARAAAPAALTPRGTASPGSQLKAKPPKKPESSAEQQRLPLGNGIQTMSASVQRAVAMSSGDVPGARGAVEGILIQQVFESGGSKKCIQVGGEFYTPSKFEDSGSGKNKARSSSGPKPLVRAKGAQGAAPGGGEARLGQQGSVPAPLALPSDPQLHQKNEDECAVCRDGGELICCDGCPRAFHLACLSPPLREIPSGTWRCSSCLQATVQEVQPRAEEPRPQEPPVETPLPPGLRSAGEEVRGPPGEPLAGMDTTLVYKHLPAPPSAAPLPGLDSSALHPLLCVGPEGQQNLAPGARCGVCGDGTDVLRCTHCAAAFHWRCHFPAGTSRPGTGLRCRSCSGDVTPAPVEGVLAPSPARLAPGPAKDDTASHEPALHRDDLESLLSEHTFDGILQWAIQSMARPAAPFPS

Variants of: B1
test.description: AIRE transcriptional activation functional score (insulin promoter-GFP; nonsense median 0, synonymous median 1) (normalised score); higher = higher AIRE activity (more reporter activation)
applied.conditions: with insulin promoter-GFP reporter in HEK293
Measured AIRE transcriptional activation functional score, listed per entry for reference.
readout.kind: AIRE transcriptional activation functional score

mutations=G527V measurement=0.0961
mutations=G387V measurement=1.5
mutations=P407E measurement=0.454
mutations=F59N measurement=-0.0761
mutations=L93A measurement=0.124
mutations=P365H measurement=0.594
mutations=L47S measurement=0.462
mutations=A140N measurement=0.714
mutations=S64N measurement=0.278
mutations=E296A measurement=0.699
mutations=F230M measurement=0.801
mutations=L341Y measurement=0.945
mutations=A134E measurement=-0.378
mutations=E216A measurement=0.655
mutations=L470E measurement=0.628
mutations=R127D measurement=0.358
mutations=A145W measurement=2.05
mutations=D36I measurement=0.0675
mutations=K52Q measurement=-0.353
mutations=A489W measurement=0.893
mutations=C337W measurement=0.733
mutations=P381S measurement=0.87
mutations=P124C measurement=1.15
mutations=T391E measurement=0.539
mutations=L283P measurement=0.953
mutations=T524W measurement=0.629
mutations=A191S measurement=1.03
mutations=V226K measurement=0.148
mutations=A284E measurement=0.63
mutations=G438Q measurement=1.23
mutations=R303E measurement=0.933
mutations=A461N measurement=1.38
mutations=P416Y measurement=0.419
mutations=G240A measurement=0.723
mutations=A352M measurement=1.13
mutations=L175T measurement=0.916
mutations=G208P measurement=0.201
mutations=F77G measurement=-0.0629
mutations=L516D measurement=0.758
mutations=C311W measurement=0.678
mutations=T16W measurement=-0.366
mutations=A403F measurement=1.09
mutations=F543G measurement=0.595
mutations=P365I measurement=0.733
mutations=K159Y measurement=1.33
mutations=A404I measurement=0.94
